# Test system: Nucleic Acid
# assay comment: Thermal denaturation in alternating poly(dG-dC)-poly(dG-dC) homopolymer (GC)
# Assay type: nucleic-acid assay
// values below are reported Tm
Write the figure, then the unit, nothing else.

Use these answered entries as a reference point.
                                        smi  system_under_test  measurement_name     val
0  CC(C)NC(=N)c1ccc2[nH]c(CCc3nc4cc(C(=N)NC(C)C)ccc4[nH]3)nc2c1       Nucleic Acid                Tm  3.3 °C
1  c1cc2[nH]c(CCCCc3nc4cc(C5=NCCN5)ccc4[nH]3)nc2cc1C1=NCCN1       Nucleic Acid                Tm  4.6 °C
2  c1c[nH]c(-c2ccc(-c3cc4ccc(-c5ncc[nH]5)cc4[nH]3)cc2)n1       Nucleic Acid                Tm  9.4 °C
3  N=C(N)c1ccc2[nH]c(CCCCCc3nc4cc(C(=N)N)ccc4[nH]3)nc2c1       Nucleic Acid                Tm  3.3 °C
4  CN1CCN(c2ccc3[nH]c(-c4ccc5[nH]c(-c6ccc(O)cc6)nc5c4)nc3c2)CC1       Nucleic Acid                Tm  2.5 °C
5  c1cc2[nH]c(CCc3nc4cc(C5=NCCCN5)ccc4[nH]3)nc2cc1C1=NCCCN1       Nucleic Acid                Tm  2.7 °C
6      c1ccc2[nH]c(CCc3nc4ccccc4[nH]3)nc2c1       Nucleic Acid                Tm    1 °C
7  Nc1ccc2nc(CCc3nc4ccc(N)cc4[nH]3)[nH]c2c1       Nucleic Acid                Tm  2.6 °C

(Q) Write down measured Tm (Nucleic Acid) for this compound. `N=C(N)c1ccc2[nH]c(-c3cccc(-c4nc5cc(C(=N)N)ccc5[nH]4)c3)nc2c1`
(A) 5.6 °C

(Q) Please report Tm with Nucleic Acid for item `CC(C)NC(=N)c1ccc2[nH]c(-c3ccc(-c4nc5cc(C(=N)NC(C)C)ccc5[nH]4)cc3)nc2c1` .
(A) 5.6 °C

(Q) Provide Tm, recorded with Nucleic Acid, of `N=C(N)c1ccc2[nH]c(CCCCc3nc4cc(C(=N)N)ccc4[nH]3)nc2c1`
(A) 3.3 °C

(Q) State recorded Tm with Nucleic Acid, entry `CC[n+]1c(-c2ccccc2)c2cc(N)ccc2c2ccc(N)cc21` , no comment.
(A) 5.3 °C

(Q) Specify the recorded Tm for `N=C(N)c1ccc2[nH]c(Cc3nc4ccccc4[nH]3)nc2c1` , system: Nucleic Acid.
(A) 0.2 °C

(Q) Recall the reported Tm of `c1cc2[nH]c(CCc3nc4cc(N5CCOCC5)ccc4[nH]3)nc2cc1N1CCOCC1` on Nucleic Acid and write it down.
(A) -0.3 °C

(Q) Please tell me the measured Tm for `N=C(N)c1ccc(OCCCCCOc2ccc(C(=N)N)cc2)cc1` ; system: Nucleic Acid.
(A) 3.2 °C

(Q) Name the recorded Tm of `N=C(N)c1ccc2nc(Cc3nc4ccc(C(=N)N)cc4[nH]3)[nH]c2c1` , assay system Nucleic Acid.
(A) 3.5 °C

(Q) GET Tm where system = Nucleic Acid and item = `c1cc2[nH]c(CCc3nc4cc(C5=NCCN5)ccc4[nH]3)nc2cc1C1=NCCN1`
(A) 3 °C

(Q) Specify Tm for `N=C(N)c1ccc(-c2cc3ccc(C(=N)N)cc3[nH]2)cc1` , system Nucleic Acid.
(A) 6.9 °C

(Q) Answer briefly: Tm recorded on Nucleic Acid for `N=C(N)c1ccc2[nH]c(CCc3nc4cc(C(=N)N)ccc4[nH]3)nc2c1`
(A) 4 °C

(Q) Give reported Tm for `OC/C=N\c1ccc2[nH]c(CCc3nc4cc(/N=C/CO)ccc4[nH]3)nc2c1` (Nucleic Acid)
(A) 0.7 °C

(Q) Look up and report measured Tm (Nucleic Acid) for the following compound: `N=C(N)c1ccc2c(ccn2Cc2cccc(Cn3ccc4cc(C(=N)N)ccc43)c2)c1`
(A) 4 °C

(Q) Write down the reported Tm (system: Nucleic Acid) of `N=C(N)c1ccc2[nH]c(CCCCCCc3nc4cc(C(=N)N)ccc4[nH]3)nc2c1`
(A) 3.5 °C

(Q) // fetch Tm for `N=C(N)c1ccc2[nH]c(-c3ccc(-c4nc5cc(C(=N)N)ccc5[nH]4)cc3)nc2c1` ; system: Nucleic Acid
(A) 3.1 °C

(Q) Look up and report Tm, with Nucleic Acid as system, for `C1=NCCCN1Cc1ccc2[nH]c(CCc3nc4cc(CN5C=NCCC5)ccc4[nH]3)nc2c1`
(A) 1.6 °C

(Q) Enter recorded Tm with Nucleic Acid for `N=C(N)c1ccc2c(ccn2CCCCn2ccc3cc(C(=N)N)ccc32)c1` here.
(A) 7.3 °C

(Q) Write down the reported Tm (system: Nucleic Acid) of `Cc1cc(-c2nc3cc(C(=N)N)ccc3[nH]2)c(C)cc1-c1nc2cc(C(=N)N)ccc2[nH]1`
(A) 3.7 °C
